biological target: UniProt:P52564; assay: KINOMEscan competition binding; conditions: compound 10.0 µM
Sequence (P52564 whole entry, looked up): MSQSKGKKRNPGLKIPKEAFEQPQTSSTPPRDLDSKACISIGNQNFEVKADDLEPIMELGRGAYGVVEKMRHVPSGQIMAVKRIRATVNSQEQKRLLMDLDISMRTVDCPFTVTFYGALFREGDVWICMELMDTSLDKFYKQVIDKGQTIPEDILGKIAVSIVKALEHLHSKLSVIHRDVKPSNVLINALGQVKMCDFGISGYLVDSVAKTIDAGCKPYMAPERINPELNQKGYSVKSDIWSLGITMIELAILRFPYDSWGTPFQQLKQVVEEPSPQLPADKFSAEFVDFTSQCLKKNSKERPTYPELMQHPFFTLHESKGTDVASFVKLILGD
Hi! Could you tag entries with kinase still bound, per cent of control below 80% as satisfied, and those at or above as not satisfied? Much appreciated.

See these solved cases before continuing.
{"LINE_NOTATION": "C=CC(=O)Nc1cc(NC(=O)c2ccc(C)c(NC(=O)c3ccno3)c2)cc(C(F)(F)F)c1", "CLASS_NAME": "not satisfied"}
{"LINE_NOTATION": "CCC(=O)N1CCN(c2ccc(-n3c(=O)ccc4cnc5ccc(-c6cnc7ccccc7c6)cc5c43)cc2C(F)(F)F)CC1", "CLASS_NAME": "not satisfied"}
{"LINE_NOTATION": "COc1cc(C(=O)NC2CCN(C)CC2)ccc1Nc1ncc2c(n1)N(C1CCCC1)CCC(=O)N2C(C)C", "CLASS_NAME": "not satisfied"}
{"LINE_NOTATION": "Cc1cc([C@@H](C)Nc2ccccc2C(=O)O)c2nc(N3CCOCC3)cc(=O)n2c1", "CLASS_NAME": "not satisfied"}
{"LINE_NOTATION": "O=C(O)c1ccc(Nc2ncc3c(n2)-c2ccc(Cl)cc2C(c2c(F)cccc2F)=NC3)cc1", "CLASS_NAME": "satisfied"}

*Q* Input COc1cc(N2CCN(C)CC2)ccc1Nc1nc(N)c(C(=O)c2c(Cl)cccc2Cl)s1 ; condition: kinase still bound, per cent of control strictly below 80%. Does it hold?
*A* not satisfied
